Measured IC50, listed per entry for reference.
# experimental-target: UniProt:P23975
# assay-explanation: Scintillation Proximity Assay (SPA) competition binding, human NET
# condition: recombinant hNET-CHO membranes, [3H]nisoxetine
Lab book: enter the figure in nM, no units written.

The compound identified as O[C@H]1CNCC[C@@]12CCN(c1nc(Oc3cccc(F)c3)cc(C(F)(F)F)n1)C2 (single isomer, unassigned) [Example 100] registered its IC50 at 398

Sample O[C@H]1CNCC[C@@]12CCN(c1nc(Oc3cccc(F)c3)cc(C(F)(F)F)n1)C2 (single isomer, unassigned) [Example 101] ; IC50 observed: 263

The recorded IC50 for O[C@H]1CNCC[C@@]12CCN(c1nc(Oc3cccc(F)c3)cc(C(F)(F)F)n1)C2 (single isomer, unassigned) [Example 98] is 437

Sure, the documented IC50 for O[C@H]1CNCC[C@@]12CCN(c1nc(Oc3cccc(F)c3)cc(C(F)(F)F)n1)C2 (single isomer, unassigned) [Example 99] is 245

* * *

Reported values of pIC50 hERG for individual entries
# experimental-target: human ERG potassium channel (hERG) (Homo sapiens (Human), UniProt Q12809)
# Sequence (Q12809 whole entry): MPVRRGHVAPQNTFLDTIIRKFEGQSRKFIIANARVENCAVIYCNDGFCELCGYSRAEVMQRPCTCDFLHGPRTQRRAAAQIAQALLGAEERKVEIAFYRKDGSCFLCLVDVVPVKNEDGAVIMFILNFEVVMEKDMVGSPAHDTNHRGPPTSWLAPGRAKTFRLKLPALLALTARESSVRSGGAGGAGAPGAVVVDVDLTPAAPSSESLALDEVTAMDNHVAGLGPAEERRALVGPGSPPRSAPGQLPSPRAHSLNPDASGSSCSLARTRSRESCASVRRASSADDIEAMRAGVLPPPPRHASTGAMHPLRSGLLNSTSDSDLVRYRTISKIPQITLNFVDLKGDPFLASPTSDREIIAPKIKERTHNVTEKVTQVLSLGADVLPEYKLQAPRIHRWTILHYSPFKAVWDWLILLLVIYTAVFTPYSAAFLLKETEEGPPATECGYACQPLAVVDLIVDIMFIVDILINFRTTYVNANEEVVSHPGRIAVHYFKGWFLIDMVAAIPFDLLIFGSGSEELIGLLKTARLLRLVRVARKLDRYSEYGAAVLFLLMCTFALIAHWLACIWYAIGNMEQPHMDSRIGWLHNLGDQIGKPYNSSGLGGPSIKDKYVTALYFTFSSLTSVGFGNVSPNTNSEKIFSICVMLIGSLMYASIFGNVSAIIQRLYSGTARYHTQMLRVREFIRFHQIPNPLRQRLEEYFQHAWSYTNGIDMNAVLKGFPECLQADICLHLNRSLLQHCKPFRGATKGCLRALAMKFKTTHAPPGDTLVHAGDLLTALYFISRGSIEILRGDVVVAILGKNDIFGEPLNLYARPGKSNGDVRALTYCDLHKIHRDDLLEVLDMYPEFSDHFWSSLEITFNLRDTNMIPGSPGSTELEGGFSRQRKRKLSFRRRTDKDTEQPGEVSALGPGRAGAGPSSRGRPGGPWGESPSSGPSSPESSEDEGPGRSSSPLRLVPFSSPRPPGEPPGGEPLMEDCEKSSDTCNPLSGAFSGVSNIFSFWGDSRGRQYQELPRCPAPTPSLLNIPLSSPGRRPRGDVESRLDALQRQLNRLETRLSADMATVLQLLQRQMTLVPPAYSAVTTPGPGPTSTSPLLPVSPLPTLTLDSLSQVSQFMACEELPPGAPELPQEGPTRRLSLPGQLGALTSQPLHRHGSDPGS
# assay-explanation: hERG tail current recording, Rapid ICE automated patch-clamp
# Assay type: cell-based
# condition: HEK293 cells stably transfected with hERG
// return a plain number; no unit text

In [3]: df
Out[3]:
                                   molecule  property_measured  measured_result
0  Cl.Fc1cccc(Oc2cc(C(F)(F)F)cc(N3CCC4(CC3)CNCCO4)n2)c1         pIC50 hERG              5.9
1  Fc1cccc(Oc2cc(F)c(F)cc2N2CCC3(CNCCO3)C2)c1 (centres unmarked)         pIC50 hERG              6.2
2  Fc1cccc(Oc2cc(F)c(F)cc2N2CCC3(CCNC3)CC2)c1         pIC50 hERG              5.9
3  Cl.N#Cc1cc(Oc2cccc(F)c2)nc(N2CCC3(CC2)CNCCO3)n1         pIC50 hERG              6.5

Data point: `Cl.Fc1cccc(Oc2ccnc(N3CCC4(CC3)CNCCO4)n2)c1` ; pIC50 hERG = 6.4

* * *

# experimental-target: human serotonin transporter (SERT) (Homo sapiens (Human))
# Sequence (P31645 whole entry): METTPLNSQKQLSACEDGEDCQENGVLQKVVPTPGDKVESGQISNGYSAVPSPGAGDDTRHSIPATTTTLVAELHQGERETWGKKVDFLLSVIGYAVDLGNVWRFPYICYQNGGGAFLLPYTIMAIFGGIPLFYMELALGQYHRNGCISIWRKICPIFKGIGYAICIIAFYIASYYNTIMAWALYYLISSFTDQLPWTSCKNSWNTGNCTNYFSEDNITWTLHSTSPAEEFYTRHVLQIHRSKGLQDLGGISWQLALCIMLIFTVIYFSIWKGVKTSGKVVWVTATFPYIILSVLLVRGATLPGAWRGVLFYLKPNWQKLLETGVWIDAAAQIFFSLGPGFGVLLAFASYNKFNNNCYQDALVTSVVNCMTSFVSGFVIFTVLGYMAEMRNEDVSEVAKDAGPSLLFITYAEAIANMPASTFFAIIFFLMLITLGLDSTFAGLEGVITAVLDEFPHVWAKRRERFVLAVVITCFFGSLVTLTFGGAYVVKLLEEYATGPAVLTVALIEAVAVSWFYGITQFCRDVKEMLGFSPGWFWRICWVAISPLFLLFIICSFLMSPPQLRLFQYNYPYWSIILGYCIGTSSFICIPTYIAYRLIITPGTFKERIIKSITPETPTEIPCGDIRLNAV
# assay-explanation: Scintillation Proximity Assay (SPA) competition binding, human SERT
# condition: recombinant hSERT-CHO membranes, [3H]citalopram
We'd kindly ask you to apply these pIC50 SERT classes: low (below 5), medium (5 to below 7), high (7 or more)

In [3]: df
Out[3]:
                                   compound  group_label
0  Cc1cc(Oc2cccc(OC(F)(F)F)c2)nc(N2CCC3(CC2)CNCCO3)n1.Cl       medium
1  Cl.Fc1cccc(Oc2cccc(N3CCC4(CC3)CNCCO4)n2)c1       medium

[Q] Quick check: band for `Cl.Fc1cccc(Oc2cc(C(F)(F)F)cc(N3CCC4(CC3)CNCCO4)n2)c1`
[A] medium

[Q] Pick a category. Item: `Cl.N#Cc1cc(Oc2cccc(F)c2)nc(N2CCC3(CC2)CNCCO3)c1`
[A] high

[Q] Textbook exercise: identify the category of the compound given here, `O=C1COC2(CCN(c3nc(Oc4cccc(F)c4)cc(C(F)(F)F)n3)CC2)CN1` , according to its measured value.
[A] low

[Q] Which pIC50 SERT band matches Cl.O=C1CCNCC12CCN(c1nc(Oc3cccc(F)c3)cc(C(F)(F)F)n1)C2 (stereo not drawn) ?
[A] low

* * *

// values below are reported pIC50 hERG
# experimental-target: human ERG potassium channel (hERG) (Homo sapiens (Human))
# assay-explanation: hERG tail current recording, Rapid ICE automated patch-clamp
# Assay type: cell-based
# condition: HEK293 cells stably transfected with hERG
// no unit, no text: just the number

As a guide, the following entries are already answered.
>>> df
                                   molecule                       experimental_target  property_measured  measured_result
0  O=S1(=O)CCNCC12CCN(c1nc(Oc3cccc(F)c3)cc(C(F)(F)F)n1)CC2  human ERG potassium channel (hERG) (Homo sapiens (Human))         pIC50 hERG              5.5
1  Fc1cccc(Oc2ccc(F)c(N3CCC4(CC3)CNCCO4)c2)c1  human ERG potassium channel (hERG) (Homo sapiens (Human))         pIC50 hERG              5.6
2  Cc1cc(Oc2cccc(F)c2)nc(N2CCC3(CC2)CNCCO3)n1.Cl  human ERG potassium channel (hERG) (Homo sapiens (Human))         pIC50 hERG              6.0
3  COc1cccc(Oc2cc(C)nc(N3CCC4(CC3)CNCCO4)n2)c1.Cl  human ERG potassium channel (hERG) (Homo sapiens (Human))         pIC50 hERG              5.5

In plain terms, Fc1cccc(Oc2cc(F)c(F)cc2N2CCC3(CCCNC3)C2)c1 (stereo not shown) has a documented pIC50 hERG of 6.6

The recorded pIC50 hERG for entry `N#Cc1ccc(Oc2ccccc2)c(N2CCC3(CC2)CNCCO3)c1` equals 6.2

pIC50 hERG for `Fc1cccc(Oc2cc(F)c(F)cc2N2CCC3(CCNCC3)CC2)c1` is 6.0

* * *

# experimental-target: human norepinephrine transporter (NET) (Homo sapiens (Human), UniProt P23975)
# Sequence (P23975 whole entry): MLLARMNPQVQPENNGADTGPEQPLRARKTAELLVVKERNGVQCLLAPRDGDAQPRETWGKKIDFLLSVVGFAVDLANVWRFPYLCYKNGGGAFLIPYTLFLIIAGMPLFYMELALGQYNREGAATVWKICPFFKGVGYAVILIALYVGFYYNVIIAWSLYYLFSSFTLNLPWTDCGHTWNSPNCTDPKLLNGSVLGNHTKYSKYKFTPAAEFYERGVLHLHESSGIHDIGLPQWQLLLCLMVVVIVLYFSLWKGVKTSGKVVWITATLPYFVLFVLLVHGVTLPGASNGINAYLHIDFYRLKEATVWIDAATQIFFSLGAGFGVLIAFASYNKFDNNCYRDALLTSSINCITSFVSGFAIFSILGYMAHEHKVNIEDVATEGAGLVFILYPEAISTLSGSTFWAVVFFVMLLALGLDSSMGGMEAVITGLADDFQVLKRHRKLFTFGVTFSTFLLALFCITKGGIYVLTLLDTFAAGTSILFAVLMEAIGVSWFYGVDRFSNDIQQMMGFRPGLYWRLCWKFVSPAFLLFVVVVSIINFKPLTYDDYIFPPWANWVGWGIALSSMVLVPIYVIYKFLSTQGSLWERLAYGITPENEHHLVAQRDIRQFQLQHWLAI
# assay-explanation: Scintillation Proximity Assay (SPA) competition binding, human NET
# condition: recombinant hNET-CHO membranes, [3H]nisoxetine
property-measured: pIC50 NET
Reply with the value as a number alone.

>>> print(df.to_string())
                                   compound  measured_result
0  Cl.N#Cc1c(C(F)(F)F)cc(N2CCC3(CC2)CNCCO3)nc1Oc1cccc(F)c1             5.78
1  Cl.Fc1cccc(Oc2cc(F)c(F)cc2N2CCC3(CC2)CNCCO3)c1             6.03
2  O=C1COC2(CCN(c3nc(Oc4cccc(F)c4)cc(C(F)(F)F)n3)CC2)CN1             5.39

Now look at this entry.
Given item Fc1cccc(Oc2cc(F)c(F)cc2N2CCC3(CNCCC34OCCO4)C2)c1 (stereo not shown) , the value recorded as its pIC50 NET is 5.81

* * *

# experimental-target: human serotonin transporter (SERT) (Homo sapiens (Human))
# assay-explanation: Scintillation Proximity Assay (SPA) competition binding, human SERT
# condition: recombinant hSERT-CHO membranes, [3H]citalopram
# Description: Measure of Affinity to the Human Transporters DAT, NET and SERT Affinity is expressed in terms of inhibition constant (Ki) of the compounds of the invention for DAT, NET and SERT, and it is typically calculated from the IC50 values obtained in competition experiments using Cheng and Prusoff equation (Cheng and Prusoff, Biochem. Pharmacol. 22:3099, 1973). […]
# pIC50 SERT per entry
The reply should be a number, written without any unit.

Consider the reported pIC50 SERT for these molecules:
                                   molecule  measured_result
0  Fc1cccc(Oc2cc(F)cc(N3CCC4(CC3)CNCCO4)c2F)c1             6.48
1  Fc1cccc(Oc2cc(F)c(F)cc2N2CCC3(CNCCC34OCCO4)C2)c1 (stereo not drawn)             6.35

Here is another molecule to look at.
// recorded pIC50 SERT for `Cc1cnc(N2CCC3(CC2)CNCCO3)nc1Oc1cccc(F)c1.Cl` : 5.00

* * *

# experimental-target: human norepinephrine transporter (NET) (Homo sapiens (Human))
# assay-explanation: Scintillation Proximity Assay (SPA) competition binding, human NET
# condition: recombinant hNET-CHO membranes, [3H]nisoxetine
# Description: Measure of Affinity to the Human Transporters DAT, NET and SERT Affinity is expressed in terms of inhibition constant (Ki) of the compounds of the invention for DAT, NET and SERT, and it is typically calculated from the IC50 values obtained in competition experiments using Cheng and Prusoff equation (Cheng and Prusoff, Biochem. Pharmacol. 22:3099, 1973). […]
property-measured: pIC50 NET
Would you mind answering with just the numeric figure?

>>> df
                                   molecule  measured_result
0  CSc1cc(N2CCC3(CC2)CNCCO3)nc(Oc2cccc(F)c2)n1.Cl [Example 64]             5.35
1  Cc1cc(Oc2cc(F)cc(F)c2)nc(N2CCC3(CC2)CNCCO3)n1.Cl [Example 50]             6.96
2  Cc1cc(Oc2cccc(F)c2)nc(N2CCC3(CC2)CNCCO3)n1.Cl [Example 44]             6.65
3  CN1CCCNC(=O)C12CCN(c1nc(Oc3cccc(F)c3)cc(C(F)(F)F)n1)CC2 [Example 76]             4.88

pIC50 NET measured on O=C1NCC2(CCN(c3nc(Oc4cccc(F)c4)cc(C(F)(F)F)n3)CC2)O1 [Example 89] = 5.66

Lab note: Fc1cccc(Oc2cc(F)c(F)cc2N2CCC3(CCNC3)CC2)c1 [Example 91] gave pIC50 NET of 6.26
